- TEST_TARGET: cyclooxygenase
- PROTOCOL_TEXT: Cyclooxygenase-inhibiting action (PGE2 formation, rabbit kidney marrow microsome fraction)
- CONDITION_SUMMARY: cyclooxygenase from rabbit kidney marrow microsomes, [1-14C] arachidonic acid, 37°C 15 minutes; tested at 40, 20, 10 or 5 µM
pIC50: −log10 of the molar value.
QUANTITY_MEASURED: pIC50

>>> numeric_result("CCCCC/C=C\\C(=O)CCc1ccc(O)c(OC)c1 [cis-(6)-shogaol]")
4.93

---

- TEST_TARGET: 5-lipoxygenase (Rattus norvegicus, UniProt P12527)
- Construct: The supernatant was used as the standard enzyme of 5-lipoxygenase; endogenous in cells; host or cells: RBL-1 cultured cells, sonicated; 105,000 x G supernatant
- Sequence (P12527 whole entry): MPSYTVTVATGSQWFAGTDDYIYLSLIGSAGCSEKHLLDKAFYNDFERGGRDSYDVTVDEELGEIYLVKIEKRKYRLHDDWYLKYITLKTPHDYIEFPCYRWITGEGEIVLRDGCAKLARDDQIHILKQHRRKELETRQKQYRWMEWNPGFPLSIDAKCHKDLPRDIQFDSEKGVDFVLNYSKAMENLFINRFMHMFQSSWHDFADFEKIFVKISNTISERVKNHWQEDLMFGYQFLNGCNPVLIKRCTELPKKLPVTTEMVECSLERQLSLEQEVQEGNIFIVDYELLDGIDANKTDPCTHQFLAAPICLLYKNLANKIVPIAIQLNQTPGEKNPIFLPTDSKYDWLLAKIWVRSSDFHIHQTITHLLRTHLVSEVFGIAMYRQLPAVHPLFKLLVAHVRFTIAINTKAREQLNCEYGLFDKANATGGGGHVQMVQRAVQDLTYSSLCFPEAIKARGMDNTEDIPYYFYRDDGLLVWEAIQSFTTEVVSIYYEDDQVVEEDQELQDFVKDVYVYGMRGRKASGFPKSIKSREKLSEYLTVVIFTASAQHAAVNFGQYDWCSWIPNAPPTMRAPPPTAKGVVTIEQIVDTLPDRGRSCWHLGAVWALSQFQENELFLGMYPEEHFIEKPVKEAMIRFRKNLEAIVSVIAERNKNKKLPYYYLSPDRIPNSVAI
- PROTOCOL_TEXT: 5-Lipoxygenase-inhibiting action (5-HETE formation, enzyme from RBL-1 cultured cells)
- Format: biochemical
- CONDITION_SUMMARY: 5-lipoxygenase from RBL-1 cells, 10 µM arachidonic acid, 37°C 10 minutes; tested at 5, 1 or 0.5 µM
QUANTITY_MEASURED: IC50 (nM)

>>> numeric_result("CCCCC/C=C\\C(=O)CCc1ccc(O)c(OC)c1 [cis-(6)-shogaol]")
830

The measurements presented in this section are drawn from patent EP0334967B1.
